Values from patent US20150218212A1

Tested on: HS 578T
Assay: NCI screening panel, HS 578T (Breast Cancer)
Format: cell-based, human
Reported Log10TGI50 values for the following molecules.
Response field accepts a number only; no unit should be typed.

Worked cases, answers included:
molecule	Log10TGI50
CC(C)C[C@H](NC(=O)[C@H](COC(F)F)NC(=O)CN1CCOCC1)C(=O)N[C@@H](COC(F)F)C(=O)N[C@@H](Cc1ccccc1)C(=O)[C@@]1(C)CO1 [Example 4]	−7.01
CC(C)C[C@H](NC(=O)[C@H](COC(F)F)NC(=O)[C@H](COC(F)F)NC(=O)[C@H](COC(F)F)NC(=O)CN1CCOCC1)C(=O)[C@@]1(C)CO1 [Example 17]	−5.27

Enquiry: Determine its reported Log10TGI50: CC(C)C[C@H](NC(=O)[C@H](COC(F)F)NC(=O)[C@H](COC(F)F)NC(=O)[C@H](CCc1ccccc1)NC(=O)CN1CCOCC1)C(=O)[C@@]1(C)CO1 [Example 7]
Return: −6.05

Enquiry: Determine its reported Log10TGI50: CC(C)C[C@H](NC(=O)[C@H](Cc1ccccc1)NC(=O)[C@H](COC(F)F)NC(=O)[C@H](COC(F)F)NC(=O)CN1CCOCC1)C(=O)[C@@]1(C)CO1 [Example 11]
Return: −6.97

Enquiry: Determine its reported Log10TGI50: CC(C)C[C@H](NC(=O)[C@H](COC(F)F)NC(=O)CN1CCOCC1)C(=O)N[C@@H](COC(F)F)C(=O)N[C@@H](CC(C)C)C(=O)[C@@]1(C)CO1 [Example 1]
Return: −7.01

Enquiry: Determine its reported Log10TGI50: CC(C)C[C@H](NC(=O)[C@H](COC(F)F)NC(=O)CN1CCOCC1)C(=O)N[C@@H](Cc1ccccc1)C(=O)N[C@@H](Cc1ccccc1)C(=O)[C@@]1(C)CO1 [Example 3]
Return: −7.01
